# ASSAY INFO: physchem
# CONDITION NOTES: 20 °C, organic solvent or mixture, thermodynamic from solid, Solubility at 20° C., acetone/water (20/1, Aw at most 0.6), aliquot addition
Counter-ions that a name gives are not always drawn.
QUANTITY NAME: solubility

q: Would you kindly share the measured solubility for CN(C)CCn1c(CC(C)(C)C)nc2cc(S(=O)(=O)C3CN(CCO)C3)ccc21 [AAT-730 HCl salt] ?
a: < 20 mg/mL

###

# ASSAY INFO: physchem
# CONDITION NOTES: water, thermodynamic from solid
Counter-ions that a name gives are not always drawn.
QUANTITY NAME: solubility

q: Sample CN(C)CCn1c(CC(C)(C)C)nc2cc(S(=O)(=O)C3CN(CCO)C3)ccc21 [AAT-730 HCl salt Pattern 1] — what was its solubility?
a: 164 to 205 mg/mL
